Provenance of the data: ChEMBL document CHEMBL1201862

- System: SW-620
- RUN_DESCRIPTION: NCI tumour cell line growth inhibition, 48 h
Active and inactive are the calls of the source. No stated cut-off is given here; in the data, active = GI50 up to about 1.1 µM and inactive = higher.
METRIC: GI50

Memo: CC1CC(=O)N2CCCNC2=C1C#N (stereo unspecified) , reported GI50: > 100 µM (inactive)

Memo: CC(=O)NNc1nc(C)c(C(/C=C/c2ccc([N+](=O)[O-])cc2)=N/NC(N)=O)s1 , reported GI50: > 100 µM (inactive)

Memo: BrC12C3C4C5C(C(C43)C13OCCO3)C52 (stereo unspecified) , reported GI50: > 100 µM (inactive)

Memo: C=CN(C=C)C(=O)Cn1cc(-c2ccccc2)nn1 , reported GI50: > 100 µM (inactive)

Memo: CSc1c(C#N)c(O)n(-c2ccc(C)cc2)c(=O)c1C#N , reported GI50: > 100 µM (inactive)

Memo: COc1ccc2c(c1)CCc1c(CO)c(COC(=O)NC(C)C)n(C)c1-2 , reported GI50: 3.74 µM (inactive)

Memo: CNc1nc(N)c(N=O)c(Nc2ccc(Br)cc2)n1 , reported GI50: > 100 µM (inactive)

Memo: Cn1c(=N)n[n+]([O-])c2ccccc21 , reported GI50: 2.74 µM (inactive)

Memo: O=C(NNC(=O)c1ccncc1)c1ccncc1 , reported GI50: > 100 µM (inactive)

Memo: C=CCn1c2c(sc1=S)C(S)NC=N2 (stereo unspecified) , reported GI50: > 100 µM (inactive)

Memo: O=C1c2ccccc2C(=O)c2c1ccc(C1C(=O)c3ccccc3C1=O)c2-c1c(C2C(=O)c3ccccc3C2=O)ccc2c1C(=O)c1ccccc1C2=O , reported GI50: 15.3 µM (inactive)
